# assayed_target: T1, Antigen CD66c (CEACAM6; Sino Biological, Inc.) (UniProt P40199 35-320)
# T1 construct: Bought antigen, coated on the ELISA plate; construct not described; also called CECACAM6 (CD66c) antigen; CD66c antigen
# T1 sequence (looked up): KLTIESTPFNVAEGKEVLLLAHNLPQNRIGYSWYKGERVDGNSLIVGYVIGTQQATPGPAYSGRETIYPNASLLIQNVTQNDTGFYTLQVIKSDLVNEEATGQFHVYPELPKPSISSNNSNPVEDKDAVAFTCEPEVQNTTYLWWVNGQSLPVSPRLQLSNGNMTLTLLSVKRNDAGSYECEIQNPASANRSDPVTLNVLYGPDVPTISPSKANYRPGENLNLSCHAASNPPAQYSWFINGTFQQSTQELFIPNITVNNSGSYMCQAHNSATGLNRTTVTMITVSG
# test_summary: ELISA, CEACAM6 coated 100 ng/well, antibody at 41.15 ng/ml
quantity_measured: OD 450 nm (OD 450 nm)
# value in OD 450 nm; strip the unit string

{"binder": "recombinant humanized anti-CD66c antibody Protein ID 2938 (Vk5 + VH7) (antibody, human IgG1, V domains shown, also called hu 2938) VH: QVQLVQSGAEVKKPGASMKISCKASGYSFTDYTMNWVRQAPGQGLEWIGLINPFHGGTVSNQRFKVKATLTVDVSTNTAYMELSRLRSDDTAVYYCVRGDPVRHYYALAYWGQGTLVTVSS VL: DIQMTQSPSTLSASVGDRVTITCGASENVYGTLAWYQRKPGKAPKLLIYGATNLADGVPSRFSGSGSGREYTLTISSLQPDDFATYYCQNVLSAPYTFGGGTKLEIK", "OD 450 nm / OD 450 nm": 1.72}
{"binder": "recombinant humanized anti-CD66c antibody Protein ID 3007 (Vk7 + VH6) (antibody, human IgG1, V domains shown, also called hu 3007; #43) VH: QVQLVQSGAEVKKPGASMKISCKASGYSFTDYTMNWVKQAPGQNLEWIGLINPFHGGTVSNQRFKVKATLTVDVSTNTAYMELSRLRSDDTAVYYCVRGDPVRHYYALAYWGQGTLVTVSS VL: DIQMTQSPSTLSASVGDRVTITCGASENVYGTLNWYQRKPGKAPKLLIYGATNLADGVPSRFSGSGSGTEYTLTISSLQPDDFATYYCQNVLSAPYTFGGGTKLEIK", "OD 450 nm / OD 450 nm": 2.17}
{"binder": "recombinant humanized anti-CD66c antibody Protein ID 3058 (Vk8 + VH11) (antibody, human IgG1, V domains shown, also called hu 3058; #86) VH: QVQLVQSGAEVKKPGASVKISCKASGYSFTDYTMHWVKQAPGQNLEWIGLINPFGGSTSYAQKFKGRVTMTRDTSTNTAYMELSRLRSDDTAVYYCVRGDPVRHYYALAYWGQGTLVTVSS VL: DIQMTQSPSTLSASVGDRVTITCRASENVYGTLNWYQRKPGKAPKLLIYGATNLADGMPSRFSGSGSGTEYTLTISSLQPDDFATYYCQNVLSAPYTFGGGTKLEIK", "OD 450 nm / OD 450 nm": 1.38}
{"binder": "recombinant humanized anti-CD66c antibody Protein ID 3043 (Vk8 + VH6) (antibody, V domains shown, also called hu 3043; #71) VH: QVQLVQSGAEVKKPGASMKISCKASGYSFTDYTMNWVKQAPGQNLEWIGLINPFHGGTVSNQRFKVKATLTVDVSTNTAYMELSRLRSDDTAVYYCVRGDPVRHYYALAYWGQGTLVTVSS VL: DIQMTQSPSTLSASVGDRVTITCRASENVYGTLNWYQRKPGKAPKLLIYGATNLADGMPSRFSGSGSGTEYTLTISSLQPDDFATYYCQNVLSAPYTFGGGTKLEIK", "OD 450 nm / OD 450 nm": 1.73}
{"binder": "recombinant humanized anti-CD66c antibody Protein ID 3019 (Vk7 + VH10) (antibody, human IgG1, V domains shown, also called hu 3019; #51) VH: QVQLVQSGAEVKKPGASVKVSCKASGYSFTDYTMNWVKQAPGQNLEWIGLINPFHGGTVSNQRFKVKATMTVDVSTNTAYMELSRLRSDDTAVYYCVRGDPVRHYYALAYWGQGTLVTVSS VL: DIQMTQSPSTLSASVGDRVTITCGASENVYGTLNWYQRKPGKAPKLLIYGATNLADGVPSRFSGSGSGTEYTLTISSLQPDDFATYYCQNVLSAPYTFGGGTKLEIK", "OD 450 nm / OD 450 nm": 2.45}

Query: Provide only the value of recorded OD 450 nm for anti-CD66c chimeric antibody 8F5 (antibody, human IgG1, V domains shown, also called chimeric 8F5; chi 8F5) VH: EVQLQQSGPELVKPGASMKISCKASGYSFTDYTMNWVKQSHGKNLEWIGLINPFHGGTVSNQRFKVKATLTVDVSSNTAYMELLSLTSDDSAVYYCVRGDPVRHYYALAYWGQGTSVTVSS VL: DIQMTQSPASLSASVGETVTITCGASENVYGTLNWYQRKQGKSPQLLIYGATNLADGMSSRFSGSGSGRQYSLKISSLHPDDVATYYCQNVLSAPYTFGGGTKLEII
Result: 2.02

FYI, the data here is from patent US20220119518A1.
